Protein target, amino acids: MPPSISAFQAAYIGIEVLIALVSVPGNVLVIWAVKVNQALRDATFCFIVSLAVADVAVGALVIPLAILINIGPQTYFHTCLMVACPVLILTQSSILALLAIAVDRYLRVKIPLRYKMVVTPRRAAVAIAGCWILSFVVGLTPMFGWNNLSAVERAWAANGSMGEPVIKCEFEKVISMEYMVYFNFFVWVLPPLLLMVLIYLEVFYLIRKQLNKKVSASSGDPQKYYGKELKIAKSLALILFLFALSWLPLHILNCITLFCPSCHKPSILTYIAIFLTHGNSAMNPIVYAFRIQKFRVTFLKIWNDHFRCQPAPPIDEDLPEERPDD
reported-metric: Ki (nM)
One number for each entry, in nM.

Task item: If you can, please state the reported Ki value of `Nc1nc(-c2ccco2)c2cnn(CCc3ccc(C(=O)Nc4ccccc4N)cc3)c2n1` .
Reply: 503

###

target: Protein deacetylase HDAC6 (Homo sapiens, UniProt Q9UBN7)
Sequence (Q9UBN7 whole entry): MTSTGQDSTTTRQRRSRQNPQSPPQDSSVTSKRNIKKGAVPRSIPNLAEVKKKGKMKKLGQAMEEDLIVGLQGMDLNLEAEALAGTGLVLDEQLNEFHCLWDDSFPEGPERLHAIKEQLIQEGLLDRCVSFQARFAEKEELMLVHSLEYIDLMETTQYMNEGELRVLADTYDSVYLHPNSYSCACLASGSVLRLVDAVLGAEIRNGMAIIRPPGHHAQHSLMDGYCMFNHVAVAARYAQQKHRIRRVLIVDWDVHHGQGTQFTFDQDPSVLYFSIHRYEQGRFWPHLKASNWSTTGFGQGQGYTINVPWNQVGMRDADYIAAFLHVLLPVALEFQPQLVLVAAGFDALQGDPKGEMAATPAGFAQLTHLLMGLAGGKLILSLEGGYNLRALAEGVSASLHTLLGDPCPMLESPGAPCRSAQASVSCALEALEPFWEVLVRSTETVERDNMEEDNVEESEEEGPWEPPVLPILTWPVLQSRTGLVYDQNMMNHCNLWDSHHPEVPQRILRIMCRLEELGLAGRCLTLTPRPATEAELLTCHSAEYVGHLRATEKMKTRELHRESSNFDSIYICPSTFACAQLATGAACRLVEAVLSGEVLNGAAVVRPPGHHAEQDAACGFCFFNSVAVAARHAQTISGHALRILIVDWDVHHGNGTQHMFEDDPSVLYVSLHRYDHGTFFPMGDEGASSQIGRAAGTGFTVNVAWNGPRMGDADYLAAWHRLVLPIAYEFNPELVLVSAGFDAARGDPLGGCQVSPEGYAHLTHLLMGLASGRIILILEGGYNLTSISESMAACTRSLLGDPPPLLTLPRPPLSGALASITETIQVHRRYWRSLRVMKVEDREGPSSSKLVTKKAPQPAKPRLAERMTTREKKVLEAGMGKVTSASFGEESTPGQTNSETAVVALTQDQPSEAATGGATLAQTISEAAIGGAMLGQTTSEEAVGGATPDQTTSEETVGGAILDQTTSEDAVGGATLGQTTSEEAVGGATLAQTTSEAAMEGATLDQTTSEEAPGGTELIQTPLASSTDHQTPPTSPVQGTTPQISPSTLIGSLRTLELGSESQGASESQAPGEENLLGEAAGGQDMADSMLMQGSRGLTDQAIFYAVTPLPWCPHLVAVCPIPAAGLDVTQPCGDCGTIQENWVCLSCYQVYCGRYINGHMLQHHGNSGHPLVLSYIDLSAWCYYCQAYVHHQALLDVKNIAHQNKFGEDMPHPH
reported-metric: IC50

Task item: If you can, please state the reported IC50 value of `Nc1nc(-c2ccco2)c2cnn(CCc3ccc(C(=O)Nc4ccccc4N)cc3)c2n1` .
Reply: > 10 µM

###

Entries with reported Ki on Adenosine receptor A2a (Homo sapiens, UniProt P29274)
Sequence (P29274 whole entry): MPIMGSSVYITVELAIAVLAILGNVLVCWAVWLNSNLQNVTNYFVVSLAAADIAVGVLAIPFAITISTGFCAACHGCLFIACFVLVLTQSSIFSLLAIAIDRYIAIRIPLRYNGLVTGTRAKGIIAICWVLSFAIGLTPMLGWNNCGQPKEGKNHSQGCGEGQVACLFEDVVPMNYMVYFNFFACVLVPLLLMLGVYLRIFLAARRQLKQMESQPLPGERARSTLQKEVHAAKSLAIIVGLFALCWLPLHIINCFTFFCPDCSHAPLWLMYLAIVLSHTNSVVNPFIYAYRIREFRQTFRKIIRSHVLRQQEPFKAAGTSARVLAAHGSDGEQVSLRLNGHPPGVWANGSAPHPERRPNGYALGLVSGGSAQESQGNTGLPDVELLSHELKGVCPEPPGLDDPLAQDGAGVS
Answers are plain numbers, in µM.

Recorded Ki, per entry:
                        structure_as_smiles  reported_metric  readout_value
0  Cc1ccc(-c2nc(N)nc3c2cnn3Cc2cccc(/C=C/C(=O)NO)c2)o1               Ki          0.378
1  Nc1nc(-c2ccco2)c2cnn(CCCCCCCC(=O)NO)c2n1               Ki          0.276
2  Cc1ccc(-c2nc(N)nc3c2cnn3Cc2cccc(OCCCCCC(=O)NO)c2)o1               Ki         0.0123
3  Nc1nc(-c2ccco2)c2cnn(CCOc3ccc(C(=O)Nc4ccccc4N)cc3)c2n1               Ki          0.974
4    Cc1ccc(-c2nc(N)nc3c2cnn3CCCCC(=O)NO)o1               Ki           1.83

Please give Ki for each item listed below.
1. Cc1ccc(-c2nc(N)nc3c2cnn3CCCOc2ccc(C(=O)Nc3ccccc3N)cc2)o1
2. Nc1nc(-c2ccco2)c2cnn(CCCCCC(=O)NO)c2n1
3. Cc1ccc(-c2nc(N)nc3c2cnn3Cc2cccc(OCCCCCCC(=O)NO)n2)o1

Reply:
0.107
0.777
0.159

###

Task for the reader: assign each of the following compounds its reported log10 GI50.
system: CT26; assay: Antiproliferative activity against mouse CT26 cells after 72 hrs by CCK-8 assay; format: functional
The figures below represent log10 of GI50, where GI50 is stated in µM.

>>> print(df.to_string())
                                   compound  readout_value
0  Cc1ccc(-c2nc(N)nc3c2cnn3Cc2cccc(OCCCCCCC(=O)NO)c2)o1           1.12
1  Nc1nc(-c2ccco2)c2cnn(CCc3ccc(C(=O)Nc4ccccc4N)cc3)c2n1          -0.42
2  Cc1ccc(-c2nc(N)nc3c2cnn3Cc2cccc(OCCCCCC(=O)NO)c2)o1           1.28
3  Cc1ccc(-c2nc(N)nc3c2cnn3Cc2cccc(OCCCCCCC(=O)NO)n2)o1           0.89
4  Nc1nc(-c2ccco2)c2cnn(Cc3cccc(/C=C/C(=O)NO)c3)c2n1           0.37

Please give log10 GI50 for each item listed below.
1. Nc1nc(-c2ccco2)c2cnn(CCCCCCC(=O)NO)c2n1
2. O=C(CCCCCCC(=O)Nc1ccccc1)NO [VORINOSTAT]
3. Nc1nc(-c2ccco2)c2cnn(Cc3ccc(N)c(OCCCCCCC(=O)NO)c3)c2n1

Reply:
1: 1.52; 2: 0.37; 3: 1.36

Please give log10 GI50 for each item listed below.
1. Nc1ccccc1NC(=O)c1ccc(CNc2nccc(-c3cccnc3)n2)cc1 [MOCETINOSTAT]
2. Nc1nc(-c2ccco2)c2cnn(Cc3cccc(OCCCCCC(=O)NO)c3)c2n1
3. Nc1nc(-c2ccco2)c2cnn(CCCc3ccc(C(=O)Nc4ccccc4N)cc3)c2n1
4. Cc1ccc(-c2nc(N)nc3c2cnn3CCc2ccc(C(=O)Nc3ccccc3N)cc2)o1
5. Nc1nc(-c2ccco2)c2cnn(Cc3cccc(OCCCCCCC(=O)NO)n3)c2n1

Reply:
1: 0.25; 2: 1.00; 3: 0.88; 4: 0.96; 5: 0.76

Please give log10 GI50 for each item listed below.
1. Cc1ccc(-c2nc(N)nc3c2cnn3Cc2ccc(N)c(OCCCCCCC(=O)NO)c2)o1
2. Nc1nc(-c2ccco2)c2cnn(Cc3cccc(OCCCCCCC(=O)NO)c3)c2n1

Reply:
1: 1.29; 2: 1.10

Data provenance is ChEMBL document CHEMBL5154845.
